# measurement description: Renal clearance in Wistar Han rat at 1 mg/kg administered as iv infusion for 1 hr and measured up to 7 hrs by LC-MS/MS analysis
# Format: ADME, organism-based
# experimental parameters: in vivo
endpoint: CL renal (mL/min/kg)

1 = CNC(=O)c1cc(C(=O)NCCC[C@H]2OC[C@H](N)CO2)cc2c1O[C@H](CF)[C@H]2c1ccccc1
2 = CNC(=O)c1cc(C(=O)NC2CC2)cc2c1O[C@H](CO)[C@H]2c1ccccc1
3 = CNC(=O)c1cc(C(=O)NC2CC2)cc2c1O[C@H](C)[C@H]2c1ccccc1
4 = CNC(=O)c1cc(C(=O)N[C@@H]2C[C@H]2CO)cc2c1O[C@H](CF)[C@H]2c1ccccc1
Please sort the compounds listed above from highest to lowest CL renal. Return the labels ranked in the requested order, please.
2, 1, 4, 3

// provenance: ChEMBL document CHEMBL4619816
